biological target: Gal(b1-3)GlcNAc(b1-3)Gal(b1-3)GlcNAc; experiment: glycan array binding signal (z-score within array); higher = stronger binding; settings: glycan notation: IUPAC condensed, linker removed
The sample as a whole holds a higher share of the strongest signals than the screen did.
Consider the following binders and their measured glycan array binding signal (z-score) readings.
assayEndpoint: glycan array binding signal (z-score)

• SP16665A-bot-344-23-344 (Bacteroides ovatus) (protein) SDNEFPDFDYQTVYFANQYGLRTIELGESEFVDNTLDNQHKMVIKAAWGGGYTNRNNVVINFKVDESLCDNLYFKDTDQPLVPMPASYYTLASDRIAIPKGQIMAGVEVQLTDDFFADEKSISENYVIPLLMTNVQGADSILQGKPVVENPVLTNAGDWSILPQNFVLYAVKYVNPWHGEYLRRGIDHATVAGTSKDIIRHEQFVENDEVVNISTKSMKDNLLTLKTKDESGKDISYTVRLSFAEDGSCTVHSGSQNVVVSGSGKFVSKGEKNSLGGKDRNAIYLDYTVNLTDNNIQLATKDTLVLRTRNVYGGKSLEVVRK = 0.024
• AT3G09350(27) (Arabidopsis thaliana), Q84J81 (protein) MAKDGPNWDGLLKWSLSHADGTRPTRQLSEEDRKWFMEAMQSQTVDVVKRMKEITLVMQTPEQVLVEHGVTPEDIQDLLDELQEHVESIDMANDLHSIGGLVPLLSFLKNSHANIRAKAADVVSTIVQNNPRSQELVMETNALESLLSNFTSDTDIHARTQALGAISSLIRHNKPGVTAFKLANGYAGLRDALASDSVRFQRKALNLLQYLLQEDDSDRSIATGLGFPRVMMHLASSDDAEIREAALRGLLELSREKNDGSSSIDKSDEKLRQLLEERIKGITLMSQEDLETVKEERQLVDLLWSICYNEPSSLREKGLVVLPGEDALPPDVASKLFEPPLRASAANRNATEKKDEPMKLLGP = -0.089
